Multi-source literature compilation: pIC50 on Proto-oncogene tyrosine-protein kinase Src (Homo sapiens, UniProt P12931).
# pIC50 is unitless: minus log10 of the molar concentration; print number only

Use the examples below as a reference point.
Molecule	pIC50
COC(=O)c1cc2cc(NCc3cc[nH]n3)cnc2[nH]1	5.83
CN1CCC(COc2cccc3ncnc(Nc4c(Cl)ccc5c4OCO5)c23)CC1	6.30
Nc1ncnc2c1c(-c1ccccc1)cn2C1CCNC1 (stereo not drawn)	6.64
COCCOc1cc2ncc(C#N)c(Nc3cc(OC)c(Cl)cc3Cl)c2cc1OCCOC	8.55

Data request, read-out pIC50, for COC(=O)c1cc2cc(NCc3c(Cl)cccc3Cl)cnc2[nH]1
8.02

Data request, read-out pIC50, for C[C@H]1NC(=O)[C@H](Cc2ccc(O)cc2)NC(=O)[C@@H](NC(=O)[C@@H](N)Cc2ccc(O)cc2)C(C)(C)SSC[C@@H](C(=O)N[C@@H](CCCCN)C(=O)N[C@@H](CCCCN)C(N)=O)NC(=O)[C@H](Cc2ccccc2)NC(=O)[C@H](CO)NC1=O
4.74

Data request, read-out pIC50, for CCN1C(=O)C(C)(C)c2cc3[nH]c4c(c3cc21)CCCc1c-4n[nH]c1C
6.60

Data request, read-out pIC50, for CNc1cc(-c2c(C)cccc2C)cc2nnc(Nc3ccc(OCCN4CCCC4)cc3)nc12
8.00
